Test system: glutathione (GSH)
Experiment: Reactivity Profiling with Glutathione (GSH), half-life by HPLC
Settings: 5 mM glutathione (GSH) in IMDM with 10% FBS
Let's look at some compounds and their measured half-life at 25 μM.

Solved cases (2 shown):
COc1cc(C(=O)O)ccc1N(Cc1cc(C2CC2)cc(C(C)(C)C)c1)C(=O)CN(Cc1ccc(F)cn1)S(=O)(=O)c1c(F)c(F)c(F)c(F)c1F | 0.00167 to 2.37 h
O=C(O)c1ccc(N(Cc2cc(C3CC3)cc(C3CC3)c2)C(=O)CN(Cc2ccc(F)cc2Cl)S(=O)(=O)c2c(F)c(F)c(F)c(F)c2F)c(OC2CC2)c1 | 4.12 to 9.23 h

Task: Returns the measured half-life at 25 μM for the input compound. Input: COc1cc(C(=O)O)ccc1N(Cc1cc(C2CC2)cc(C(C)(C)C)c1)C(=O)CN(Cc1ccc(F)c(F)c1F)S(=O)(=O)c1c(F)c(F)c(F)c(F)c1F
Output: 4.12 to 9.23 h

Task: How about this compound: COCCOc1cc(C(=O)O)ccc1N(Cc1cc(C2CC2)cc(C(C)(C)C)c1)C(=O)CN(Cc1ccc(F)cc1Cl)S(=O)(=O)c1c(F)c(F)c(F)c(F)c1F
Output: 2.37 to 4.12 h

Task: How about this compound: O=C(O)c1ccc(N(C(=O)CN(Cc2ccccc2C(F)(F)F)S(=O)(=O)c2c(F)c(F)c(F)c(F)c2F)C2CCC2)c(OC2CC2)c1
Output: 2.37 to 4.12 h

Task: How about this compound: O=C(O)c1ccc(N(Cc2cc(C3CC3)cc(C3CC3)c2)C(=O)CN(Cc2ccccc2F)S(=O)(=O)c2c(F)c(F)c(F)c(F)c2F)c(OC2CC2)c1
Output: 4.12 to 9.23 h

* * *

Let's look at some molecules and their measured half-life at 25 μM.
Test system: glutathione (GSH)
Experiment: Reactivity Profiling with Glutathione (GSH), half-life by HPLC
Conditions: 5 mM glutathione (GSH) in IMDM with 10% FBS

CC(C)(C)c1cc(CN(C(=O)CN(Cc2ccccc2F)S(=O)(=O)c2c(F)c(F)c(F)c(F)c2F)c2ccc(C(=O)O)cc2C(F)(F)F)cc(C2CC2)c1 | 4.12 to 9.23 h
COc1cc(C(=O)O)ccc1N(Cc1cc(C2CC2)cc(N2CCCC2)c1)C(=O)CN(Cc1cnccc1C(F)(F)F)S(=O)(=O)c1c(F)c(F)c(F)c(F)c1F | 0.00167 to 2.37 h

Now look at this entry.
Task: // lookup half-life at 25 μM | system=glutathione (GSH) | key= CC(C)(C)c1cc(CN(C(=O)CCN(Cc2ccc(Cl)cc2)S(=O)(=O)c2c(F)c(F)c(F)c(F)c2F)c2ccc(C(=O)O)c(O)c2)cc(C2CC2)c1
Output: 2.37 to 4.12 h

* * *

Let's look at some molecules and their measured half-life at 25 μM.
Test system: glutathione (GSH)
Test: Reactivity Profiling with Glutathione (GSH), half-life by HPLC
Conditions: 5 mM glutathione (GSH) in IMDM with 10% FBS

Solved cases (2 shown):
COc1cc(C(=O)O)ccc1N(Cc1cccc(N2CCCC2)c1)C(=O)CN(Cc1cnccc1C(F)(F)F)S(=O)(=O)c1c(F)c(F)c(F)c(F)c1F [Compound 1153] | 0.1 to 142 min
CC(C)(C)c1cc(CN(C(=O)CN(C2CC2)S(=O)(=O)c2c(F)c(F)c(F)c(F)c2F)c2ccc(C(=O)O)cc2OC2CC2)cc(C2CC2)c1 [Compound 1100] | 0.1 to 142 min

Task: Returns the measured half-life at 25 μM for the input molecule. Input: COc1cc(C(=O)O)ccc1N(Cc1cc(C2CC2)cc(C(C)(C)C)c1)C(=O)CN(Cc1ccncc1C(F)(F)F)S(=O)(=O)c1c(F)c(F)c(F)c(F)c1F [Compound 1130]
Output: 142 to 247 min

Task: How about this molecule: CC(C)(C)c1cc(CN(C(=O)CN(Cc2ccccc2F)S(=O)(=O)c2c(F)c(F)c(F)c(F)c2F)c2ccc(C(=O)O)cc2OC2CC2)cc(C2CC2)c1 [Compound 1062]
Output: 554 to 100000 min

Task: How about this molecule: COc1cc(C(=O)O)ccc1N(Cc1cc(C2CC2)cc(C(C)(C)C)c1)C(=O)CN(Cc1ncccc1C(F)(F)F)S(=O)(=O)c1c(F)c(F)c(F)c(F)c1F [Compound 1098]
Output: 142 to 247 min

Task: How about this molecule: COc1cc(C(=O)O)ccc1N(Cc1cc(C2CC2)cc(C(C)(C)C)c1)C(=O)CN(Cc1ccc(F)cc1C#N)S(=O)(=O)c1c(F)c(F)c(F)c(F)c1F [Compound 1180]
Output: 142 to 247 min

Task: How about this molecule: CC(c1cc(CN(C(=O)CN(Cc2ccccc2F)S(=O)(=O)c2c(F)c(F)c(F)c(F)c2F)c2ccc(C(=O)O)c(O)c2)cc(C2CC2)c1)C(F)(F)F (centres unmarked) [Compound 1086]
Output: 142 to 247 min

Task: How about this molecule: CCCCOc1cc(C(=O)O)ccc1N(Cc1cc(C2CC2)cc(C2CC2)c1)C(=O)CN(Cc1ccc(F)cc1Cl)S(=O)(=O)c1c(F)c(F)c(F)c(F)c1F [Compound 1254]
Output: 554 to 100000 min

* * *

System: glutathione (GSH)
Assay: Reactivity Profiling with Glutathione (GSH), half-life by HPLC
Conditions: 5 mM glutathione (GSH) in IMDM with 10% FBS
Let's look at some molecules and their measured half-life at 25 μM.

Solved cases (5 shown):
CC(C)(C)c1cc(CN(C(=O)CN(Cc2ccccc2C(F)(F)F)S(=O)(=O)c2c(F)c(F)c(F)c(F)c2F)c2ccc(C(=O)O)cc2OC2CC2)cc(C2CC2)c1 | 9.23 to 1670 h
C[C@H](CC(=O)N(Cc1cc(C2CC2)cc(C(C)(C)C)c1)c1ccc(C(=O)O)c(O)c1)N(Cc1ccc(Cl)cc1)S(=O)(=O)c1c(F)c(F)c(F)c(F)c1F | 2.37 to 4.12 h
COc1ccccc1CN(CC(=O)N(Cc1cc(C2CC2)cc(C(C)(C)C)c1)c1ccc(C(=O)O)c(O)c1)S(=O)(=O)c1c(F)c(F)c(F)c(F)c1F | 2.37 to 4.12 h
COc1cc(C(=O)O)ccc1N(Cc1cc(C2CC2)cc(C(C)(C)C)c1)C(=O)CN(Cc1ccccc1C#N)S(=O)(=O)c1c(F)c(F)c(F)c(F)c1F | 0.00167 to 2.37 h
O=C(O)c1ccc(N(Cc2cc(C3CC3)cc(C3CC3)c2)C(=O)CN(Cc2ccc(F)cc2Cl)S(=O)(=O)c2c(F)c(F)c(F)c(F)c2F)c(N2CCOCC2)c1 | 4.12 to 9.23 h

Task: Returns the measured half-life at 25 μM for the input molecule. Input: Cc1cc(C(=O)O)ccc1N(Cc1cc(C2CC2)cc(C(C)(C)C)c1)C(=O)CN(Cc1cnccc1C(F)(F)F)S(=O)(=O)c1c(F)c(F)c(F)c(F)c1F
Output: 0.00167 to 2.37 h

Task: How about this molecule: O=C(O)c1ccc(N(Cc2ccccc2)C(=O)CN(Cc2ccccc2C(F)(F)F)S(=O)(=O)c2c(F)c(F)c(F)c(F)c2F)c(OC2CC2)c1
Output: 0.00167 to 2.37 h

Task: How about this molecule: COc1cc(F)ccc1CN(CC(=O)N(Cc1cc(C2CC2)cc(C(C)(C)C)c1)c1ccc(C(=O)O)cc1OC)S(=O)(=O)c1c(F)c(F)c(F)c(F)c1F
Output: 2.37 to 4.12 h

Task: How about this molecule: O=C(O)c1ccc(N(Cc2cc(C3CC3)cc(C3CC3)c2)C(=O)CN(Cc2ncccc2C(F)(F)F)S(=O)(=O)c2c(F)c(F)c(F)c(F)c2F)c(OC2CC2)c1
Output: 4.12 to 9.23 h

Task: How about this molecule: COCCOc1cc(C(=O)O)ccc1N(Cc1cc(C2CC2)cc(C2CC2)c1)C(=O)CN(Cc1ccc(F)cc1Cl)S(=O)(=O)c1c(F)c(F)c(F)c(F)c1F
Output: 2.37 to 4.12 h

* * *

System: glutathione (GSH)
Experiment: Reactivity Profiling with Glutathione (GSH), half-life by HPLC
Conditions: 5 mM glutathione (GSH) in IMDM with 10% FBS
Let's look at some compounds and their measured half-life at 25 μM.

Solved cases (2 shown):
COc1cc(C(=O)O)ccc1N(Cc1cc(C2CC2)cc(C(C)(C)C)c1)C(=O)CN(Cc1cnccc1C(F)(F)F)S(=O)(=O)c1c(F)c(F)c(F)c(F)c1F | 2.37 to 4.12 h
COc1cc(C(=O)O)ccc1N(Cc1cc(C2CC2)cc(C(C)(C)C)c1)C(=O)CN(Cc1cccc(F)c1F)S(=O)(=O)c1c(F)c(F)c(F)c(F)c1F | 2.37 to 4.12 h

Task: Returns the measured half-life at 25 μM for the input compound. Input: COc1cc(C(=O)OC(C)C)ccc1N(Cc1cc(C2CC2)cc(C(C)(C)C)c1)C(=O)CN(Cc1cnccc1C(F)(F)F)S(=O)(=O)c1c(F)c(F)c(F)c(F)c1F
Output: 9.23 to 1670 h

Source of measurements: patent US20230159445A1
